Data origin: patent US20220288197A1

test: LC-MS/MS measurement of CASIN pharmacokinetics in mouse serum; format: in vivo, C57BL/6 mice; settings: female, C57BL/6, mouse, serum, intraperitoneal, 25 mg/kg, 25 mg/kg i.p. for 4 consecutive days, 48 hour window of analysis, 3 hours; read-out: concentration of CASIN in serum after 3 hours
PROPERTY: concentration at 3 h

## Input // Input: OCCNC1CCCc2c1[nH]c1ccc(-c3ccccc3)cc21 (stereo not shown) [CASIN] . Output its concentration at 3 h only.
## Output ~2000 nM
